Target: Somatostatin sst4 (Homo sapiens)
Construct: host or cells: CHO-K1
Sequence (P31391 whole entry): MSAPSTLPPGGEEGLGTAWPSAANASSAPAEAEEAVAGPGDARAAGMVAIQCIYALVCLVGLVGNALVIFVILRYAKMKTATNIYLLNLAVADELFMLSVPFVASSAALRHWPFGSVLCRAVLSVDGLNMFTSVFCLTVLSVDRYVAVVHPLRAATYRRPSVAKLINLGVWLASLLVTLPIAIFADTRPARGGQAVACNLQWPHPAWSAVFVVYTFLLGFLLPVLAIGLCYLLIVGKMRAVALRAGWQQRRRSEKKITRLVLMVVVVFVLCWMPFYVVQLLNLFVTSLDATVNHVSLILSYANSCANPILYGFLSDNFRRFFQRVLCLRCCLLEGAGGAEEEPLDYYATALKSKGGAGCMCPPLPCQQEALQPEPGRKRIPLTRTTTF
Test: Somatostatin sst4 radioligand binding assay
Conditions: Table 4; human
measurement type: IC50 (nM)

{"columns": ["molecule", "IC50 (nM)"],
 "data": [
  ["Cc1ccc(Oc2ccc3c(c2)N(CCCCN)CCC32C(=O)N(CCc3c[nH]c4ccccc34)C(=O)N2C)cc1 (stereo not shown)", 649]
]}

[I] Cc1ccc(Oc2ccc3c(c2)N(CCCCN)CCC32C(=O)N(CCc3c[nH]c4ccccc34)C(=O)N2C)cc1C (stereo not shown)
[II] Cc1ccc(Oc2ccc3c(c2)N(CCCCN)CCC32C(=O)N(C)C(=O)N2Cc2c[nH]c3ccccc23)cc1 (stereo not shown)
[III] CN1C(=O)N(CCc2c[nH]c3ccccc23)C(=O)C12CCN(CCCCN)c1cc(Oc3ccc4c(c3)OCO4)ccc12 (stereo not shown)
Incoming: Arrange by IC50, high to low. Give your ranking as a list of the labels in the requested order.
Outgoing: II, I, III
